Just for reference, patent US4837316A is where these values come from.

system: gastric mucosal leasion; assay: Cytoprotective action (gastric mucosal lesion by necrotizing agent 0.4N HCl+50% EtOH); format: in vivo, Male Donryu rats; conditions: Rattus norvegicus, po; 10 mg/kg P.O., 30 minutes before 5 ml/kg 0.4N HCl+50% EtOH; stomach taken 1 hour after; read-out: Repression % (inhibition % of total area of gastric mucosal leasion vs control)
Observed Property: inhibition in vivo at 10 mg/kg (%)
Output spec: scalar in %, unitless text.

What the record says about O=C(CSCc1ccco1)NCCSCc1ccc(CN2CCCCC2)o1 : inhibition in vivo at 10 mg/kg is 46

What the record says about O=C(CSCCCc1ccccc1)NCCCOc1cccc(CN2CCCCC2)c1 : inhibition in vivo at 10 mg/kg is 55

What the record says about CC1CCCCN1Cc1cccc(OCCCNC(=O)CS(=O)(=O)Cc2ccoc2)c1 (stereo not shown) : inhibition in vivo at 10 mg/kg is 50

What the record says about O=C(CSCc1ccccc1)NCCCOc1cccc(CN2CCCCC2)c1 : inhibition in vivo at 10 mg/kg is 59

What the record says about NC(N)=Nc1nc(CSCCNC(=O)CSCC2CCCCC2)cs1 : inhibition in vivo at 10 mg/kg is 52.3

What the record says about O=C(CSCc1ccco1)NCCSCc1ccc(C=CCN2CCCC2)s1 : inhibition in vivo at 10 mg/kg is 43

What the record says about O=C(C[S+]([O-])Cc1ccccc1)NCCCOc1cccc(CN2CCCCC2)c1 (stereo not shown) : inhibition in vivo at 10 mg/kg is 73

What the record says about O=C(CSCc1ccoc1)NCCCOc1cccc(CN2CCCCC2)c1 : inhibition in vivo at 10 mg/kg is 69

What the record says about COc1ccc(CSCC(=O)NCCCOc2cccc(CN3CCCCC3)c2)nc1 : inhibition in vivo at 10 mg/kg is 53

What the record says about O=C(CS(=O)(=O)Cc1ccccc1)NCCCOc1cccc(CN2CCCCC2)c1 : inhibition in vivo at 10 mg/kg is 72

What the record says about NC(N)=Nc1nc(CSCCNC(=O)CSCc2ccoc2)cs1 : inhibition in vivo at 10 mg/kg is 50.6

What the record says about O=C(CSCc1cccc(Cl)n1)NCCCOc1cccc(CN2CCCCC2)c1 : inhibition in vivo at 10 mg/kg is 61

What the record says about CC1CCCN(Cc2cccc(OCCCNC(=O)CS(=O)(=O)Cc3ccoc3)c2)C1 (stereo not shown) : inhibition in vivo at 10 mg/kg is 88

What the record says about NC(N)=Nc1nc(CSCCNC(=O)CSCc2ccco2)cs1 : inhibition in vivo at 10 mg/kg is 58

What the record says about O=C(C[S+]([O-])Cc1ccco1)NCCCOc1cccc(CN2CCCCC2)c1 (stereo not shown) : inhibition in vivo at 10 mg/kg is 72

What the record says about O=C(CCCSCc1ccccc1)NCCCOc1cccc(CN2CCCCC2)c1 : inhibition in vivo at 10 mg/kg is 62
